System: BT-549 breast
Assay: NCI tumour cell line growth inhibition, 48 h
Reported Metric: GI50

Item: `COC1=CC(c2ccc[nH]2)=N/C1=C\c1[nH]c(C)c(C)c1CCC(=O)OCc1ccccc1` | System: BT-549 breast | GI50: 0.378 µM

Item: `NCCCCCCCCCn1c2c(c3ccccc3c1=O)C(=O)c1ccccc1-2` | System: BT-549 breast | GI50: 9.26 µM

Item: `COc1cccc(/C=C2\CCc3ccccc3C2=O)c1` | System: BT-549 breast | GI50: 20 µM

Item: `CS(=O)(=O)c1ccc(-c2cnc(NCc3ccco3)n3cnnc23)cc1` | System: BT-549 breast | GI50: > 100 µM

Item: `N/C(=N\C(N)=N\c1nc2ccccc2s1)c1ccnc(Br)c1` | System: BT-549 breast | GI50: 4.32 µM

Item: `CC/C(=C(/CC)c1ccc(O)cc1)c1ccc(O)cc1` | System: BT-549 breast | GI50: 6.16 µM

Item: `COc1ccc2c(c1)C(=O)c1c-2c(OCCN2CCCCC2)nc2ccc(OC)cc12` | System: BT-549 breast | GI50: 8.26 µM

Item: `Cc1cc2nc3c4cc([N+](=O)[O-])ccc4n(CCN(C)C)c3nc2cc1C` | System: BT-549 breast | GI50: 2 µM

Data origin: PubChem BioAssay (NCI)
